# Test system: CEM cells HIV-1 protection, formazan growth assay
# assay.remarks: NCI AIDS Antiviral Assay
# settings: measured here: growth of uninfected CEM cells
readout.name: IC50 (µM)
Supply the numeric figure in µM, leaving out any unit text.

CC(C)Cc1cccc(C(C)C)c1NC(=O)CCC(=O)N/N=C1\C(=N/NC(=O)CCC(=O)Nc2c(C(C)C)cccc2C(C)C)C(c2ccc3c(c2)OCO3)Oc2ccccc21 (centres undefined)
81.3
CO[C@@]12[C@@H]3N[C@@H]3CN1C1=C(C(=O)C(N3CCCC3)=C(C)C1=O)[C@@H]2COC(N)=O
0.631
COc1ccc(N=Nc2c(C)c(C#N)c(=S)n(C3OC(CO)C(O)C(O)C3O)c2C)cc1 (centres undefined)
27.5

*Q* Entry COc1ccc(C(=O)c2ccc(OC)c3ccccc23)c2ccccc12 needs its IC50 filled in; supply it.
*A* 1.51

*Q* Write down IC50 measured for item C[C@]12C[C@H](c3ccccc3)Nc3ccccc3N1C(c1ccccc1)=NO2
*A* 36.3

*Q* Answer with the recorded IC50 of CC(=O)C(N=Nc1nc2ccc(Cl)cc2[nH]1)C(C)=O only.
*A* 28.8

*Q* For the compound COc1ccc(-c2cc(-c3ccco3)c(C#N)c(=S)n2C2OC(COC(C)=O)C(OC(C)=O)C(OC(C)=O)C2OC(C)=O)cc1 (centres undefined) , give its reported IC50.
*A* 145

*Q* Recall and state the measured IC50 for O=C(NNC(=S)S)c1ccncc1 .
*A* 95.5

*Q* Return IC50 for the following compound: O=C1N=C2Sc3ccc4ccccc4c3N2C1=O
*A* 182

*Q* Identify measured IC50 associated with Cc1cc2[nH]c3[nH]c(=O)[nH]c(=O)c3c2cc1C
*A* 170

*Q* Provide IC50 value for the following compound: CC1(C)CC(=O)C2=C(C1)Nc1ccc(Cl)cc1NC2c1cccc([N+](=O)[O-])c1 (centres undefined)
*A* 102

*Q* Give IC50 for the following compound: CC1(c2cccc3c2C2(O)C=CC4(CCC32)OCCO4)OCCO1 (centres undefined)
*A* 174

*Q* Identify measured IC50 associated with Cc1nc(Nc2ccc([N+](=O)[O-])cc2)sc1C(=O)/C=C/c1ccc(N(C)C)cc1
*A* 18.6

---

# Test system: CEM cells HIV-1 protection, formazan growth assay
# assay.remarks: NCI AIDS Antiviral Assay;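 active = compounds giving half or more protection of infected cells from virus-caused growth loss, again on retest; inactive = the rest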
Where a SMILES comes first, the peptide text is derived from it. The star is where a group is joined. Boc = CC(C)(C)OC(=O)*
Would you mind answering with one of these outcomes? Y = active, N = inactive

Completed entries (count: 6):
COc1ccc(COCC[C@H](C)OC2OC(CO[Si](C)(C)C(C)(C)C)C(OC(=O)CCCN=[N+]=[N-])C(OC(=O)CCCN=[N+]=[N-])C2OC(=O)CCCN=[N+]=[N-])cc1 (stereo partly drawn)
N
OCC1OC(c2scc3c(=S)nc[nH]c23)C(O)C1O (stereo not drawn)
N
CCCCN(C)C(=O)C1=C(C)NC(C)=C(C(=O)N(C)CCCC)C1
N
O=C1CN(CCCN2CCOCC2)CC(=O)N2CCCCN12
N
Cc1cccc(C(C)(C)C)c1NC(=O)CC1Sc2ccccc2NC1=O (stereo not drawn)
N
COC(=O)CNC(=O)C(Cc1ccccc1)NC(=O)C(Cc1ccccc1)NC(=O)OC(C)(C)C (stereo not drawn) (Boc-Phe-Phe-Gly-OMe; configuration not given here)
N

Okay, now this compound:
*Q* Any idea what this test logged for O=C1NC(=O)c2ccccc2/C1=C/c1ccc2c(c1)OCO2 ?
*A* N
